B1: F-BAR and double SH3 domains protein 1, residues 467 to 528; numbered along this chain, Q86WN1 (parent)
chain: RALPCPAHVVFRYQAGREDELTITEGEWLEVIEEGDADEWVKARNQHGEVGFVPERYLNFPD

Variants of: B1
experimental details: abundance fitness (aPCA) (normalised: wild type 0, dead -1); higher = more abundant; growth selection in yeast, the domain comes from the species named
cond: Homo sapiens
Listed next: entries and their corresponding abundance fitness.
Enter a number only.

Ask: Please report the recorded abundance fitness for E18T .
Result: -0.013

Ask: Please report the recorded abundance fitness for D36L .
Result: -0.01

Ask: Please report the recorded abundance fitness for A7P .
Result: -0.788

Ask: Please report the recorded abundance fitness for E34C .
Result: 0.008

Ask: Please report the recorded abundance fitness for D36E .
Result: 0.032

Ask: Please report the recorded abundance fitness for V31K .
Result: -0.797

Ask: Please report the recorded abundance fitness for D38R .
Result: 0.053

Ask: Please report the recorded abundance fitness for A43N .
Result: -0.763

Ask: Please report the recorded abundance fitness for R17H .
Result: 0.043

Ask: Please report the recorded abundance fitness for Q14T .
Result: -0.204

Ask: Please report the recorded abundance fitness for W28M .
Result: -0.024

Ask: Please report the recorded abundance fitness for Q14I .
Result: -0.261

Ask: Please report the recorded abundance fitness for L21E .
Result: -0.751

Ask: Please report the recorded abundance fitness for E27D .
Result: -0.047

Ask: Please report the recorded abundance fitness for V10Y .
Result: -0.118

Ask: Please report the recorded abundance fitness for A37R .
Result: 0.141

Ask: Please report the recorded abundance fitness for G26D .
Result: -0.047

Ask: Please report the recorded abundance fitness for L21T .
Result: -1.21
